System: 323965-272-R-J2-PDC complex spheroid viability;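 note: spheroids exposed to agents for seven days before readout; percent of DMSO vehicle control wells so 100% = untreated growth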
Assay: Anticancer human tumor 323965-272-R-J2-PDC patient-derived pancreatic carcinoma cell line growth inhibition [CLK]
Settings: second compound 0.316 µM; first compound 10 µM; hits give low values

{"columns": ["compound", "viability, T/C [%]"],
 "data": [
  ["CC(=O)O[C@H]1C(=O)[C@@]2(C)[C@H]([C@H](OC(=O)c3ccccc3)[C@]3(O)C[C@H](OC(=O)[C@H](O)[C@@H](NC(=O)c4ccccc4)c4ccccc4)C(C)=C1C3(C)C)[C@]1(OC(C)=O)CO[C@@H]1C[C@@H]2O + CNC(=O)c1ccc(Nc2nc(OC3CCCC3)c3c(-c4ccc5nc(C)oc5c4)c[nH]c3n2)c(OC)c1", 76.1],
  ["Nc1ccccc1NC(=O)c1ccc(CNC(=O)OCc2cccnc2)cc1 + CNC(=O)c1ccc(Nc2nc(OC3CCCC3)c3c(-c4ccc5nc(C)oc5c4)c[nH]c3n2)c(OC)c1", 28.8],
  ["C=C(F)C(=O)N1CCN(c2nc(OCC3CCCN3C)nc3c2CCN(c2cccc4cccc(Cl)c24)C3)CC1CC#N (centres undefined) + CNC(=O)c1ccc(Nc2nc(OC3CCCC3)c3c(-c4ccc5nc(C)oc5c4)c[nH]c3n2)c(OC)c1", 1.42],
  ["CC1COCCN1c1cc(C2(S(C)(=N)=O)CC2)nc(-c2ccnc3[nH]ccc23)n1 (centres undefined) + CNC(=O)c1ccc(Nc2nc(OC3CCCC3)c3c(-c4ccc5nc(C)oc5c4)c[nH]c3n2)c(OC)c1", 27.7]
]}

Origin of values: PubChem BioAssay AID2060619
